B1: Hairpin Ribozyme (parent)
chain: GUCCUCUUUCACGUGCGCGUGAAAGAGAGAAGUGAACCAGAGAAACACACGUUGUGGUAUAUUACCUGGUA

Variants of: B1
assay protocol: self-cleavage, relative activity (ratio to wild type); higher = more cleavage; co-transcriptional
experimental readout: self-cleavage
Hey, just send me the number, nothing else.

These recorded examples may help you get a feel for the data.
1) GUCCUCUUUCACGUGCGCGUGAAAGAGAGAAGUGAACCAGAGAAACACACGUUGUGCUAGAUUACCUGGUA [G57C U60G] = 0.178
2) GUCCUCUUUCACGUGCGCGUGAAAGAGAGAAGUGAACCAGCGAAACACACGUUGUGGUAUAUUACCUGGGA [A41C U70G] = 0.91
3) GUCCUCUUUCACGUGCGCGUGCAAGAGAGAAGUGAACCAGAGAAAAACACGUUGUGGUAUAUUACCUGGUA [A22C C46A] = 0.183
4) GUCCUCUUUCACGUGCGCGUGAAAGAGAGAAGUGAACCAGAGAAACACUCGUUGUGGUAUAUUAGCUGGUA [A49U C65G] = 0.171

Task: Annotate the variant GUCCUCUUUCACGUGCGCGUGAAAGAUAGAAGUGAACCAGAGAAACACACGUUGUGGUAUCUUACCUGGUA [G27U A61C] with its measured self-cleavage.
Result: 0.149

Task: Annotate the variant GUCCUCUUUCGCGUGCGCGUGAAAGAGAGAAGUGAACCAGAGAAACACACGUUGUGGUAUAUUGCCUGGUA [A11G A64G] with its measured self-cleavage.
Result: 0.507

Task: Annotate the variant GUCCUCUUUCACGUGCGCGUGAAAGAGAGAGGUGAACCAGAGAAACACACGUUGUGGUAUAAUACCUGGUA [A31G U62A] with its measured self-cleavage.
Result: 0.127
